Data provenance is the supplement of paper PMC10724198.

# Tested on: Saccharomyces cerevisiae;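 also: PSI is a weighted mean of sequencing reads over stability bins, variants kept only with over 10 reads, mCherry proximal and sfGFP distal, peptide attached via GGGS linker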
# Method: protein stability index of tFT-peptide fusion (C-terminal peptide) (PSI (0-1 scale)); higher = more stable (slower turnover)
# Conditions: genetic background: wild type; temperature: 30 C
A collection of sequences and their measured protein stability index
Measured quantity: protein stability index

In [3]: df
Out[3]:
    record_sequence  recorded_result
 0     GGGRGGAAEGAV            0.781
 1     LCARVCITFNIV            0.457
 2     VYLRSMLSLNIR            0.676
 3     WPLISPFSKHRW            0.696
 4     VGVVGGRWCGRG            0.648
 5     PPAPTPLSPLAS            0.693
 6     SPSGLPPPLTYP            0.667
 7     ELNGLSLVRKKK            0.662
 8     PGRLPPPFASFF            0.687
 9     RKKINKRLCLGN            0.692
10     AARRRLFSPCSP            0.626
11     CVPFFSSSSPLI            0.812
12     PFFHVFLLLLLI            0.195
13     PSLPPLPPAPLL            0.726
14     LFLEVCFFRLYF            0.465
15     SRLYGHDLRCRL            0.777
16     VFPVGSGLWRVF             0.63
17     VILFINRIDDGK            0.616
18     TGGKGNKNKIKE            0.692
19     FWFSFSFLCHSY            0.422
20     CVFAPLFYNVYA            0.585
21     FPTPPPGPGPPP            0.641
22     SSMCPDGGYQWV            0.686
23     VPPCESLSALSS            0.707
24     AGCSVVGRWCLW            0.742
25     LGALTPSIAGGP             0.64
26     GGGRVSAGGDSG            0.751
27     VRRPSPSGGWLR             0.73
28     TSVVRIGVYRAS            0.613
29     EGSEAYQWETLG            0.681
30     YALVQHRWVYYF            0.119
31     CFGSRDSSFGHT            0.763
32     QIYKISKKKKQK            0.676
33     CVLVVGGPAGGG            0.575
34     TSPTKSPTTTNN            0.709
35     SFVVAVALGRLR            0.573
36     ILFRRRLCCFLK            0.473
37     EGDGQVWGGQGG            0.644
38     HGLGSWGTFLGV            0.655
39     RTSEAGKQHEWK            0.695
40     WSGGWAGGMLNE            0.641
